# measurementTarget: T1, TONSL acidic stretch and ARD (aa. 450-692) (human, UniProt Q96HA7 450-692)
# T1 sequence: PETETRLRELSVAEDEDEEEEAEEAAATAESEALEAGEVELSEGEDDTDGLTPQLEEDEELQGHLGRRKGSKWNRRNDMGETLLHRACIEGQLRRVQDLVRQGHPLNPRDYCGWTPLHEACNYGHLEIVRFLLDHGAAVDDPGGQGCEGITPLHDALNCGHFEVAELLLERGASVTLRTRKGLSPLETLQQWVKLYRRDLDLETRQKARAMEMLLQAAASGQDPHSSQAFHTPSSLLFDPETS
# methodSummary: ITC, peptide injected into TONSL (450-692); the value stands without a heading in the legend box, in the column where the other peptide has NB

binder	Kd, nM
GLGKGGAKRHRKVLRDN (Synthesised at Tufts University Core Facility; also called H4 (9-25); H4 tail (9-25)) [histone H4 (residues 9-25) peptide, unmodified]	1500
